Value source: patent US12655106B2

- Test system: Full length Human HDAC6 (Homo sapiens)
- Construct: Full length Human HDAC6; FLAG (C); host or cells: baculovirus expression system
- Sequence (Q9UBN7 1-1215): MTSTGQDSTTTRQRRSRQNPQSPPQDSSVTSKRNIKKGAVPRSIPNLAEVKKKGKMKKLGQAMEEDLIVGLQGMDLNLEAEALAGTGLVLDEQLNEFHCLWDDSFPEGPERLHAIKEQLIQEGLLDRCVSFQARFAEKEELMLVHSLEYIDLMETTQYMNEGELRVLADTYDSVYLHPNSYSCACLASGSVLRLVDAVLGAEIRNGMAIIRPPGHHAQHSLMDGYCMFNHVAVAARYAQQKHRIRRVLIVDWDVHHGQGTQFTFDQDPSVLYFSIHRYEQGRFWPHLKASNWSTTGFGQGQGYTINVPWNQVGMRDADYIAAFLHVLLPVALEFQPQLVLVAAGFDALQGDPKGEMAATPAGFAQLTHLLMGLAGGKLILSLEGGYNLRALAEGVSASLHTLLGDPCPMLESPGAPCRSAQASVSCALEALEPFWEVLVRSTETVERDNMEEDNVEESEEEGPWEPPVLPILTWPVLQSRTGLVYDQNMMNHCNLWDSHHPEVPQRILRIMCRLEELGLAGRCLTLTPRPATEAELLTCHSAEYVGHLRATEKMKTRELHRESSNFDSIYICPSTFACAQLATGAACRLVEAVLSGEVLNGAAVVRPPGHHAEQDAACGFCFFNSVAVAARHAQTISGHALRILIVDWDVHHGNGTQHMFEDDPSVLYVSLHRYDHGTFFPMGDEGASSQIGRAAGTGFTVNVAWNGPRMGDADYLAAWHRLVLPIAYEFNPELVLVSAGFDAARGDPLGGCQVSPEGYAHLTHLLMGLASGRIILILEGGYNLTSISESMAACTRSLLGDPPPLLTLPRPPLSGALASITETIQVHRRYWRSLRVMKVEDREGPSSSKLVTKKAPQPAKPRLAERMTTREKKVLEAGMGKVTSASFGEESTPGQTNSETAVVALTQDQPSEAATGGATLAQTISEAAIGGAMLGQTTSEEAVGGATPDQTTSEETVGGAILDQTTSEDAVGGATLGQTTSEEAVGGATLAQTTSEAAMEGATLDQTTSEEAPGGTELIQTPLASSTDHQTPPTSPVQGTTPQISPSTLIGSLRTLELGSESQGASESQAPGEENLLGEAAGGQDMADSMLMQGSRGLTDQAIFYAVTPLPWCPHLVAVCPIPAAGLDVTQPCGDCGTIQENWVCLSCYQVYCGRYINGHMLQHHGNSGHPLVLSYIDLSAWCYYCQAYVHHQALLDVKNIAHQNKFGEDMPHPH
- Protocol details: Caliper endpoint assay for HDAC enzymatic activity (HDAC6)
- Type: biochemical
- Assay setup: ratio of HDAC8 IC50/HDAC6 IC50
Measure: Selectivity (6 v 8)

In: Entry CC(=O)N1CC[C@@H](N2CCc3cc(C(=O)NO)cc(F)c3C2)CC12CCC2 (single isomer, unassigned) has what Selectivity (6 v 8)?
Out: IV (IV: >100-1000)

In: Entry `O=C(NO)c1cc(F)c2c(c1)C[C@@H]1CCCCN1C2` has what Selectivity (6 v 8)?
Out: IV (IV: >100-1000)

In: Entry O=C(NO)c1cc(F)c2c(c1)CCN([C@@H]1CCCC3(CCC3)C1)C2 (single isomer, unassigned) has what Selectivity (6 v 8)?
Out: V (V: >1000)

In: Entry CC[C@@H]1Cc2c(F)cc(C(=O)NO)cc2CN1C[C@]12C[C@H](CO1)N(C)C2 (single isomer, unassigned) has what Selectivity (6 v 8)?
Out: IV (IV: >100-1000)

Dear colleague, could you send me Selectivity (6 v 8) for each of the items below? Thanks.
1. CC(=O)N1CCC[C@]2(C1)C[C@H](N1CCc3cc(C(=O)NO)cc(F)c3C1)C2 (single isomer, unassigned)
2. CC[C@@H]1Cc2c(F)cc(C(=O)NO)cc2CN1CC1CCC2(CCC2)CC1 (single isomer, unassigned)

Out:
["IV (IV: >100-1000)", "III (III: >10-100)"]

Dear colleague, could you send me Selectivity (6 v 8) for each of the items below? Thanks.
1. CC[C@H](c1ccc(C(=O)NO)cc1F)N1CCC2(CCCCC2)C1 (single isomer, unassigned)
2. CN1CCC2(CC1)CC(CN1CCc3cc(C(=O)NO)cc(F)c3C1)C2
3. O=C(NO)c1cc(F)c2c(c1)CCN(C1CC3(CCCC3)C1)C2

Out:
1: III (III: >10-100); 2: IV (IV: >100-1000); 3: V (V: >1000)

Dear colleague, could you send me Selectivity (6 v 8) for each of the items below? Thanks.
1. O=C(NO)c1cc(F)c2c(c1)CCN(CC1CC3(CCNCC3)C1)C2
2. O=C(NO)c1cc(F)c2c(c1)CN1CCC[C@@H]1C2
3. CC(=O)N1CCC[C@]2(C1)C[C@@H](N1CCc3cc(C(=O)NO)cc(F)c3C1)C2 (single isomer, unassigned)
4. O=C(NO)c1cc(F)c2c(c1)CCN(C1CCC13COC3)C2 (centres unmarked)
5. CNC12CC(CN3CCc4cc(C(=O)NO)cc(F)c4C3)(C1)C2
6. O=C(NO)c1cc(F)c2c(c1)CCN([C@H]1C[C@@]3(CCCCO3)C1)C2 (single isomer, unassigned)

Out:
1. V (V: >1000)
2. IV (IV: >100-1000)
3. IV (IV: >100-1000)
4. IV (IV: >100-1000)
5. IV (IV: >100-1000)
6. V (V: >1000)

Dear colleague, could you send me Selectivity (6 v 8) for each of the items below? Thanks.
1. O=C(NO)c1cc(F)c2c(c1)CCN([C@@H]1CC[C@]13CCOC3)C2 (single isomer, unassigned)
2. O=C(NO)c1cc(F)c2c(c1)CCN(CC13CC(C1)N(C1CC1)C3)C2
3. O=C(NO)c1cc(F)c2c(c1)CCN1CCC[C@H]21
4. O=C(NO)c1ccc2c(c1)CN1CCC[C@H]21
5. O=C(NO)c1cc(F)c2c(c1)CCN(C1CC[C@@]13CCCO3)C2 (single isomer, unassigned)

Out:
1: V (V: >1000); 2: IV (IV: >100-1000); 3: III (III: >10-100); 4: II (II: >1-10); 5: IV (IV: >100-1000)
